Cited source for all entries: the RNAGym collection of RNA variant scans (doi:10.7554/elife.90254)

B1: OR4K15 (parent)
chain: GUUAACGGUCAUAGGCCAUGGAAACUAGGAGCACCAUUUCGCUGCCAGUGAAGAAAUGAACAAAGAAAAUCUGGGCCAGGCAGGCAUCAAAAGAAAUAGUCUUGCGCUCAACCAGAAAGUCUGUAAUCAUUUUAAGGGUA

Variants of: B1
Test: self-cleavage, relative activity (ratio to wild type); higher = more cleavage; in vitro, sequencing; the parent is a self-cleaving ribozyme
recorded-metric: self-cleavage

Query (variant): U108A U120C ; field requested: self-cleavage
0.01

Query (variant): A116G U131G ; field requested: self-cleavage
0.3

Query (variant): A24G A33U ; field requested: self-cleavage
1.73

Query (variant): U72C A118G ; field requested: self-cleavage
0.1

Query (variant): U3C U108C ; field requested: self-cleavage
0.04

Query (variant): C25A A56G ; field requested: self-cleavage
1.41

Query (variant): A126G U139A ; field requested: self-cleavage
0

Query (variant): C112U A116G ; field requested: self-cleavage
0

Query (variant): G48A A126G ; field requested: self-cleavage
1.15

Query (variant): A55G U72A ; field requested: self-cleavage
0.19

Query (variant): G7A A18G ; field requested: self-cleavage
0.64

Query (variant): U43A A67G ; field requested: self-cleavage
1.88

Query (variant): U49A A86G ; field requested: self-cleavage
1.19

Query (variant): A54G A135U ; field requested: self-cleavage
0.73

Query (variant): U9C A23C ; field requested: self-cleavage
1.27

Query (variant): U9C A54G ; field requested: self-cleavage
1.53

Query (variant): G20A A118G ; field requested: self-cleavage
0.79

Query (variant): A67U A89G ; field requested: self-cleavage
1.74

Query (variant): U130A U139C ; field requested: self-cleavage
0.78

Query (variant): U19C A135G ; field requested: self-cleavage
2.08

Query (variant): G58U A64G ; field requested: self-cleavage
1.2

Query (variant): G31U A129G ; field requested: self-cleavage
1.78

Query (variant): A92G A118U ; field requested: self-cleavage
0.78

Query (variant): A116G A134G ; field requested: self-cleavage
0.59

Query (variant): U72A A91U ; field requested: self-cleavage
0.24

Query (variant): U12C A13G ; field requested: self-cleavage
1.16

Query (variant): `G41C` ; field requested: self-cleavage
1.78

Query (variant): U19C A96G ; field requested: self-cleavage
1.8

Query (variant): A51U U132G ; field requested: self-cleavage
1.49

Query (variant): C88A U102C ; field requested: self-cleavage
2.23

Query (variant): U9A G80U ; field requested: self-cleavage
0.2

Query (variant): A52G A64C ; field requested: self-cleavage
2.64

Query (variant): U43C A110G ; field requested: self-cleavage
0.15

Query (variant): G80A A125U ; field requested: self-cleavage
0.24

Query (variant): A11U U100A ; field requested: self-cleavage
0.62

Query (variant): A52G G123A ; field requested: self-cleavage
0.48

Query (variant): A111U U120C ; field requested: self-cleavage
0.03

Query (variant): U87C G123A ; field requested: self-cleavage
1.78

Query (variant): C17U A116G ; field requested: self-cleavage
0.47

Query (variant): A54G A55C ; field requested: self-cleavage
1.94

Query (variant): G41A A92G ; field requested: self-cleavage
0.97

Query (variant): A51G A118G ; field requested: self-cleavage
1.29

Query (variant): A110C A114U ; field requested: self-cleavage
0.01

Query (variant): A117G U122C ; field requested: self-cleavage
1.05

Query (variant): A60U U120C ; field requested: self-cleavage
0.7

Query (variant): A94U U97C ; field requested: self-cleavage
1.31

Query (variant): A82C A114G ; field requested: self-cleavage
0.05

Query (variant): U43A A90U ; field requested: self-cleavage
1.74

Query (variant): A23U A51C ; field requested: self-cleavage
1.55

Query (variant): A47G U72A ; field requested: self-cleavage
0.09

Query (variant): U37C U124C ; field requested: self-cleavage
0.62

Query (variant): U39A A78C ; field requested: self-cleavage
0.23

Query (variant): U12C U132A ; field requested: self-cleavage
0.67

Query (variant): A68G A82G ; field requested: self-cleavage
0.62

Query (variant): A22U U120A ; field requested: self-cleavage
1.95

Query (variant): U57C A114C ; field requested: self-cleavage
0.04

Query (variant): A89G G99A ; field requested: self-cleavage
1.15

Query (variant): A24G A116U ; field requested: self-cleavage
0.46

Query (variant): A22U A24G ; field requested: self-cleavage
1.01

Query (variant): A30U U39C ; field requested: self-cleavage
0.9

Query (variant): U43A U120A ; field requested: self-cleavage
1.57

Query (variant): A96U U132C ; field requested: self-cleavage
1.95

Query (variant): U72C U122A ; field requested: self-cleavage
0.09

Query (variant): G31A A60G ; field requested: self-cleavage
0.77

Query (variant): A23G U97A ; field requested: self-cleavage
1.48

Query (variant): A110U U120C ; field requested: self-cleavage
0.08

Query (variant): A62G U120G ; field requested: self-cleavage
0.84

Query (variant): U37C A51U ; field requested: self-cleavage
1.83

Query (variant): A78C U132C ; field requested: self-cleavage
0.33

Query (variant): G74C A140G ; field requested: self-cleavage
0.23

Query (variant): G83A A89U ; field requested: self-cleavage
1.82

Query (variant): A47U U72A ; field requested: self-cleavage
0.13

Query (variant): U49C A135U ; field requested: self-cleavage
2.28

Query (variant): A23G U37C ; field requested: self-cleavage
1.03

Query (variant): A47G A86U ; field requested: self-cleavage
2.98

Query (variant): U37C A52U ; field requested: self-cleavage
0.57

Query (variant): A22U A36G ; field requested: self-cleavage
1.48

Query (variant): U87C A129U ; field requested: self-cleavage
0.73

Query (variant): A126U U132C ; field requested: self-cleavage
1.21

Query (variant): A78C U108A ; field requested: self-cleavage
0.01

Query (variant): A22G U37G ; field requested: self-cleavage
0.8
